Measured Papp A→B at 2 h, 2 µM values are reported for all entries that follow.
- PROCEDURE SUMMARY: Apparent permeability of the compound across apical side to basolateral side in human CaCo-2 cells at 2 uM incubated for 2 hrs
- Format: ADME, cell-based
Field format: number, assumed ×10⁻⁶ cm/s, no unit text.

[[record]]
molecule = "COc1cc(F)ccc1-c1nc(Nc2cc(F)cc(CS(C)(=N)=N)c2)ncc1F"
property_measured = "Papp A→B at 2 h, 2 µM"
quantitative_readout = 5

[[record]]
molecule = "COc1cc(F)ccc1-c1nc(Nc2cc(F)cc(CS(C)(=N)=O)c2)ncc1F (stereo in doubt)"
property_measured = "Papp A→B at 2 h, 2 µM"
quantitative_readout = 16.8


Return reported Papp A→B at 2 h, 2 µM; argument: COc1cc(F)ccc1-c1ncnc(Nc2cccc(CS(C)(=N)=O)c2)n1 (stereo not drawn) 3.5
